Here the recorded pKi is given for each entry.
Biological target: DOR (Rattus norvegicus, UniProt P33533)
Construct: from tissue
Sequence (P33533 whole entry): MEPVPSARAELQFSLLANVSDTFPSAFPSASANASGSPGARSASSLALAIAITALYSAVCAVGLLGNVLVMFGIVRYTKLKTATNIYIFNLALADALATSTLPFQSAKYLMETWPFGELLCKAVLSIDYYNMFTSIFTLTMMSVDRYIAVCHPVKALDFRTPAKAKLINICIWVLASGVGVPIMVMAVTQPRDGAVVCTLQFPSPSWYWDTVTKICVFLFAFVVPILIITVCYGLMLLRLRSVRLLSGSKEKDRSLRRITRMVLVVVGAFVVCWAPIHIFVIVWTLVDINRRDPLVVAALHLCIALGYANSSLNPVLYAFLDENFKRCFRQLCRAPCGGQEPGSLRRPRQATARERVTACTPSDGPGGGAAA
Assay: Opioid receptor binding, DOR, rat brain membranes
Conditions: Binding Ki DOR, Table 1-4, rat brain membranes
pKi field: float, defined as -log10 of concentration (mol/L).

// solved cases for pKi follow
INSERT INTO assay_data (molecule, test_value) VALUES
  ('COC12CCC(NCCC(=O)O)C3Oc4c(O)ccc5c4C31CCN(C)C2C5 (single isomer, unassigned) [Compound 22]', 7.86),
  ('CO[C@@]12CC[C@H](N[C@@H](CCC(N)=O)C(=O)O)[C@@H]3Oc4c(O)ccc5c4[C@@]31CCN(C)[C@@H]2C5', 8.29),
  ('CO[C@@]12CC[C@H](N[C@H](C(=O)O)[C@@H](C)O)[C@@H]3Oc4c(O)ccc5c4[C@@]31CCN(C)[C@@H]2C5', 8.38),
  ('CO[C@@]12CC[C@@H](N[C@@H](CO)C(=O)O)[C@@H]3Oc4c(O)ccc5c4[C@@]31CCN(C)[C@@H]2C5', 8.28),
  ('CO[C@@]12CC[C@H](N[C@@H](CC(C)C)C(=O)O)[C@@H]3Oc4c(O)ccc5c4[C@@]31CCN(C)[C@@H]2C5', 8.63);

Quote pKi reported for CO[C@@]12CC[C@@H](N[C@@H](CC(C)C)C(=O)O)[C@@H]3Oc4c(O)ccc5c4[C@@]31CCN(C)[C@@H]2C5 please.
9.00

Find the measured pKi of COC12CCC(NC(C(=O)O)C(C)C)C3Oc4c(O)ccc5c4C31CCN(C)C2C5 (single isomer, unassigned) [Compound 29] and report it.
8.45

Please supply the value of reported pKi for the item COC12CCC(NCCC(=O)O)C3Oc4c(O)ccc5c4C31CCN(C)C2C5 (single isomer, unassigned) [Compound 21]
7.22

Hello, please tell me recorded pKi for this one: CO[C@@]12CC[C@@H](N[C@H](C(=O)O)[C@@H](C)O)[C@@H]3Oc4c(O)ccc5c4[C@@]31CCN(C)[C@@H]2C5
8.29

Provide one value: measured pKi of CO[C@@]12CC[C@@H](N[C@@H](CCSC)C(=O)O)[C@@H]3Oc4c(O)ccc5c4[C@@]31CCN(C)[C@@H]2C5
8.62

For CCO[C@@]12CC[C@H](NCC(=O)O)[C@@H]3Oc4c(O)ccc5c4[C@@]31CCN(C)[C@@H]2C5 , write its pKi.
7.99

* * *

Molecular target: KOR (Cavia porcellus)
Construct: from tissue
Sequence (P41144 whole entry): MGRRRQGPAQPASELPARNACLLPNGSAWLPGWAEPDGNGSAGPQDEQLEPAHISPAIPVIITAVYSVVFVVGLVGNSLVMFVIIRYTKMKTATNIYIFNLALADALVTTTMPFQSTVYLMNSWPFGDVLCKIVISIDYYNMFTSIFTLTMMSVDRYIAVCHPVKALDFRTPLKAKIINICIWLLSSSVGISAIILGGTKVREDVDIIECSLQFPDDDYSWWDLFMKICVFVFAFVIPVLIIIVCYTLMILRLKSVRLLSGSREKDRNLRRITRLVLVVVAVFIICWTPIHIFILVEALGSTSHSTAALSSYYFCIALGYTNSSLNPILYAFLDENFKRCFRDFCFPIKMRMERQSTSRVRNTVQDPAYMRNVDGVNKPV
Experiment: Opioid receptor binding, KOR, guinea pig brain membranes
Details: Binding Ki (nM) KOR, in vitro binding assay, guinea pig brain membranes
List of Ki values.
// unit must come after the numeric part

Examples with their reported Ki follow.
INSERT INTO results (compound, test_value) VALUES
  ('COC12CCC(NC(C(=O)O)C(C)C)C3Oc4c(O)ccc5c4C31CCN(C)C2C5 (single isomer, unassigned) [Compound 29]', '305 nM'),
  ('CO[C@@]12CC[C@@H](N[C@@H](CCC(N)=O)C(=O)O)[C@@H]3Oc4c(O)ccc5c4[C@@]31CCN(C)[C@@H]2C5', '290 nM'),
  ('CO[C@@]12CC[C@@H](N[C@@H](CC(N)=O)C(=O)O)[C@@H]3Oc4c(O)ccc5c4[C@@]31CCN(C)[C@@H]2C5', '103 nM'),
  ('CO[C@@]12CC[C@@H](N[C@@H](CCSC)C(=O)O)[C@@H]3Oc4c(O)ccc5c4[C@@]31CCN(C)[C@@H]2C5', '468 nM'),
  ('CO[C@@]12CC[C@H](NCCC(=O)OC(C)(C)C)[C@@H]3Oc4c(O)ccc5c4[C@@]31CCN(C)[C@@H]2C5', '13.5 nM');

Okay, now this compound:
Please report Ki for the following compound: CCO[C@@]12CC[C@H](NCC(=O)O)[C@@H]3Oc4c(O)ccc5c4[C@@]31CCN(C)[C@@H]2C5
45.2 nM

* * *

Experiment: pH-metric determination of pKa, logP and logD in octanol/water (PCA200/Cheqsol)
Type: physicochemical
Details: octanol/water, 25° C.
Hi, to clarify the labels: yes (1) covers logP from -0.8 upward, no (0) covers anything below -0.8.

Below, 3 molecules whose answers are already recorded.
INSERT INTO measurements (molecule, class_assignment) VALUES
  ('CO[C@@]12CC[C@H](N[C@@H](CCCCN)C(=O)O)[C@@H]3Oc4c(O)ccc5c4[C@@]31CCN(C)[C@@H]2C5 [Compound 38]', 'yes (1)'),
  ('CO[C@@]12CC[C@H](NCCCC(=O)O)[C@@H]3Oc4c(O)ccc5c4[C@@]31CCN(C)[C@@H]2C5 [Compound 15]', 'yes (1)'),
  ('CO[C@@]12CC[C@@H](N[C@@H](CC(=O)O)C(=O)O)[C@@H]3Oc4c(O)ccc5c4[C@@]31CCN(C)[C@@H]2C5 [Compound 45]', 'no (0)');

Continue with the next molecule.
Could you tell me if the measured logP of CO[C@@]12CC[C@@H](N[C@H](C(=O)O)[C@@H](C)O)[C@@H]3Oc4c(O)ccc5c4[C@@]31CCN(C)[C@@H]2C5 [Compound 35] reaches -0.8 or more?
no (0)

* * *

Each entry below carries its recorded Ki.
Molecular target: MOR (Rattus norvegicus, UniProt P33535)
Construct: from tissue
Sequence (P33535 whole entry): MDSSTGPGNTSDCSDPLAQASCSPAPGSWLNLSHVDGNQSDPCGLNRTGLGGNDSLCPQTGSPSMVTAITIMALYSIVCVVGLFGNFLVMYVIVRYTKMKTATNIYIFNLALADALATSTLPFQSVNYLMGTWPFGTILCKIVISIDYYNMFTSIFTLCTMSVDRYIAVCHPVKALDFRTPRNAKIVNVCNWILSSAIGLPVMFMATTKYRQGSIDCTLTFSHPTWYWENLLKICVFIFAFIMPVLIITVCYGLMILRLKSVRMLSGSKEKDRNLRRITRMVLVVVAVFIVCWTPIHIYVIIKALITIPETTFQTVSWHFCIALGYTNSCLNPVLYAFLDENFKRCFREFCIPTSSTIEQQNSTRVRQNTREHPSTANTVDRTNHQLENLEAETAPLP
Test: Opioid receptor binding, MOR, rat brain membranes
Conditions: Binding Ki MOR, Table 1-4, rat brain membranes
Field format: number, assumed nM, no unit text.

Observe how each entry below is paired with its result.
INSERT INTO measurements (chemical_string, observed_property, test_value) VALUES
  ('CO[C@@]12CC[C@@H](N[C@H](C(=O)O)[C@@H](C)O)[C@@H]3Oc4c(O)ccc5c4[C@@]31CCN(C)[C@@H]2C5', 'Ki', 0.79),
  ('CO[C@@]12CC[C@@H](N[C@@H](Cc3c[nH]c4ccccc34)C(=O)O)[C@@H]3Oc4c(O)ccc5c4[C@@]31CCN(C)[C@@H]2C5', 'Ki', 0.65),
  ('CC[C@H](C)[C@H](N[C@H]1CC[C@@]2(OC)[C@H]3Cc4ccc(O)c5c4[C@@]2(CCN3C)[C@H]1O5)C(=O)O', 'Ki', 0.84);

# lookup: MOR (Rattus norvegicus, UniProt P33535) Ki, key = CO[C@@]12CC[C@H](N[C@@H](CC(N)=O)C(=O)O)[C@@H]3Oc4c(O)ccc5c4[C@@]31CCN(C)[C@@H]2C5
1.17

GET Ki | system: MOR (Rattus norvegicus, UniProt P33535) | item: CO[C@@]12CC[C@@H](NCC(=O)NCC(=O)O)[C@@H]3Oc4c(O)ccc5c4[C@@]31CCN(C)[C@@H]2C5
4.62

State the measured Ki (MOR (Rattus norvegicus, UniProt P33535)) of CO[C@@]12CC[C@H](N[C@@H](CC(C)C)C(=O)O)[C@@H]3Oc4c(O)ccc5c4[C@@]31CCN(C)[C@@H]2C5
0.68

Print MOR (Rattus norvegicus, UniProt P33535) Ki for CO[C@@]12CC[C@@H](N[C@@H](CO)C(=O)O)[C@@H]3Oc4c(O)ccc5c4[C@@]31CCN(C)[C@@H]2C5 .
2.14

* * *

Target: MOR (Rattus norvegicus, UniProt P33535)
Construct: from tissue
Test: Opioid receptor binding, MOR, rat brain membranes
Conditions: Binding Ki MOR, Table 2-6, rat brain membranes
pKi: −log10 of the molar value.
// label = Satisfied if pKi is not less than 9, otherwise Not satisfied

INSERT INTO results (molecule, class_assignment) VALUES
  ('CCO[C@@]12CC[C@H](N[C@@H](Cc3ccccc3)C(=O)O)[C@@H]3Oc4c(O)ccc5c4[C@@]31CCN(CC1CC1)[C@@H]2C5', 'Satisfied');

Check if pKi >= 9 (inclusive). Item: CO[C@@]12CC[C@@H](NCCCC(=O)O)[C@@H]3Oc4c(O)ccc5c4[C@@]31CCN(CC1CC1)[C@@H]2C5
Not satisfied

Exam item: decide whether the reported pKi for CO[C@@]12CC[C@H](NCCCC(=O)OC(C)(C)C)[C@@H]3Oc4c(O)ccc5c4[C@@]31CCN(CC1CC1)[C@@H]2C5 is at least 9.
Satisfied

Is pKi at least 9? Consider CO[C@@]12CC[C@@H](N[C@@H](CCC(=O)O)C(=O)O)[C@@H]3Oc4c(O)ccc5c4[C@@]31CCN(CC1CC1)[C@@H]2C5
Not satisfied

Quick check, pKi >= 9? CO[C@@]12CC[C@@H](N[C@@H](CC(C)C)C(=O)OC(C)(C)C)[C@@H]3Oc4c(O)ccc5c4[C@@]31CCN(CC1CC1)[C@@H]2C5
Satisfied

Hi, just wondering whether CCO[C@@]12CC[C@@H](N[C@@H](Cc3ccccc3)C(=O)OC(C)(C)C)[C@@H]3Oc4c(O)ccc5c4[C@@]31CCN(CC1CC1)[C@@H]2C5 shows pKi of 9 or higher.
Not satisfied

Exam item: decide whether the reported pKi for CCO[C@@]12CCC(=O)[C@@H]3Oc4c(O)ccc5c4[C@@]31CCN(CC1CC1)[C@@H]2C5 [Compound 14-OEt-NTX, 14-O-Ethylnaltrexone, reference compound] is at least 9.
Satisfied
